Values compiled from ChEMBL document CHEMBL2074014.

assay-system: Organic anion transporter 3 (OAT3) (Rattus norvegicus, UniProt Q9R1U7)
Sequence (Q9R1U7 whole entry): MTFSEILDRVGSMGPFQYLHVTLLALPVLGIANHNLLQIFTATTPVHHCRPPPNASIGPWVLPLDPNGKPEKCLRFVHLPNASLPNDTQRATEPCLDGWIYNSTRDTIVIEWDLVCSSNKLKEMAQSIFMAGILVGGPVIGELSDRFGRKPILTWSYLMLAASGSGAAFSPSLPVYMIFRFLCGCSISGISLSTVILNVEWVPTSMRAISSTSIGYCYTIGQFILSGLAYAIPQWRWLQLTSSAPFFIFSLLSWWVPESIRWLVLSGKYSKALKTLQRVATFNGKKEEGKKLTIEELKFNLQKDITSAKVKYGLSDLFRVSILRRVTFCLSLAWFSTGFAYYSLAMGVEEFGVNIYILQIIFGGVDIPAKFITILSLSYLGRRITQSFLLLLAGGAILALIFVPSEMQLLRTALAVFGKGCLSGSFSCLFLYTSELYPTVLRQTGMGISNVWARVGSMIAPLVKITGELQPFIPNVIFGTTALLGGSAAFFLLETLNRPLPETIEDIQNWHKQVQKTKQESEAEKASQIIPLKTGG
assay-summary: TP_TRANSPORTER: inhibition of Indoxyl sulfate uptake (Indoxyl sulfate: 2 uM, 3,4-Dihydroxyphenylacetic acid: 1000 uM) in Xenopus laevis oocytes
Format: functional, cell-based, Oocyte
Parameters: scale not given: the % may be the effect or the level left
assay-conditions: probe Indoxyl sulfate, read-out: Activity
recorded-endpoint: activity at 1000 µM
# number then unit; no other words

## Task What value of activity at 1000 µM has been reported for the following molecule? O=C(O)Cc1ccc(O)c(O)c1 [3,4-DIHYDROXYPHENYLACETIC ACID]
## Result 8.86%
